target: ATP-binding cassette sub-family C member 3 (Rattus norvegicus, UniProt O88563); test: TP_TRANSPORTER: inhibition of E217betaG uptake in membrane vesicle from MRP3-expressing Sf9 cells; format: functional, cell membranes
Sequence (O88563 whole entry): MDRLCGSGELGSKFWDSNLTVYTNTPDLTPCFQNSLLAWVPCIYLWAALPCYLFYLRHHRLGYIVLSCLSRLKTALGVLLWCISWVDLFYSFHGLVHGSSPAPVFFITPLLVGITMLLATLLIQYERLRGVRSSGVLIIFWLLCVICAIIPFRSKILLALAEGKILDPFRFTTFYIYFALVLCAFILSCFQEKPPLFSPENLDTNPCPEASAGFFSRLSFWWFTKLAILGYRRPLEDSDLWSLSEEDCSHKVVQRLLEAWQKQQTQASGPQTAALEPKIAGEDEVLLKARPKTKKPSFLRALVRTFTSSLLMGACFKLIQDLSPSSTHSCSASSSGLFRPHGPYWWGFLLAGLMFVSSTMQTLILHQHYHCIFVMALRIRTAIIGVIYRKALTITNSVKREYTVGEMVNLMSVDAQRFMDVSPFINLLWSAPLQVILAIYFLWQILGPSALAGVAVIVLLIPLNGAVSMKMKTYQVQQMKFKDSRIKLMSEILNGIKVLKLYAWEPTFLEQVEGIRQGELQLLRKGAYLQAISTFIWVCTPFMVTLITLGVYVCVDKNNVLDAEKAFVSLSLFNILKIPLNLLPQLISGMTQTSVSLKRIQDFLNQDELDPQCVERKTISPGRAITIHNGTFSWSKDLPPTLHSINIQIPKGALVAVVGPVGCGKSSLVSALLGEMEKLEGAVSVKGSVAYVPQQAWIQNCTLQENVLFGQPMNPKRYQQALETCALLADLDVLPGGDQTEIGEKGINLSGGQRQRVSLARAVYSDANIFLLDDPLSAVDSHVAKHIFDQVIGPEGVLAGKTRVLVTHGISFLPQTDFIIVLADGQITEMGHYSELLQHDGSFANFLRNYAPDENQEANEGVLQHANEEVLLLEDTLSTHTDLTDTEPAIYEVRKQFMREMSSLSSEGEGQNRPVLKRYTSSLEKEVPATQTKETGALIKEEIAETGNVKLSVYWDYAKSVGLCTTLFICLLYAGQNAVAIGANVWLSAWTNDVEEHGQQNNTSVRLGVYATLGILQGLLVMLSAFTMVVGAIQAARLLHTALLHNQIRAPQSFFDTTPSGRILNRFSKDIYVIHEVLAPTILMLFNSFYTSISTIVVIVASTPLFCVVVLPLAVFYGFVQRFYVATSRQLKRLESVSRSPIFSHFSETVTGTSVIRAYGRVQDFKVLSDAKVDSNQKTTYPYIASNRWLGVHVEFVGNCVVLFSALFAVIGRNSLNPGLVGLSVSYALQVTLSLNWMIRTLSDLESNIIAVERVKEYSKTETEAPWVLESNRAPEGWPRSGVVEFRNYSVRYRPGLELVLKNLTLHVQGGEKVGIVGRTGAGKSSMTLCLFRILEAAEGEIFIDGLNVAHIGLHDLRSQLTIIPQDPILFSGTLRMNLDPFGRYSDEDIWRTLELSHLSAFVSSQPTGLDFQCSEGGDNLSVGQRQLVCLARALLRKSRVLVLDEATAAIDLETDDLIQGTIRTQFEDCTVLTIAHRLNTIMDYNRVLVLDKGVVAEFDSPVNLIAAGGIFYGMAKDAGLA
MEASUREMENT LABEL: Ki (µM)
Give just the number in µM; leave the unit off.

Query block: Data request, read-out Ki, for CNc1nc2c(Cc3cccnc3)c(C)c(O[C@@H]3O[C@H](C(=O)O)[C@@H](O)[C@H](O)[C@H]3O)c(C)c2s1 [E3040 GLUCURONIDE]
Result block: 2.6

====

Ki reference
molecular target: Multidrug resistance associated protein (Homo sapiens, UniProt Q96QA9); assay: TP_TRANSPORTER: inhibition of E217betaG uptake in membrane vesicle from MRP3-expressing Sf9 cells; type: functional, cell membranes
Sequence (Q96QA9 whole entry): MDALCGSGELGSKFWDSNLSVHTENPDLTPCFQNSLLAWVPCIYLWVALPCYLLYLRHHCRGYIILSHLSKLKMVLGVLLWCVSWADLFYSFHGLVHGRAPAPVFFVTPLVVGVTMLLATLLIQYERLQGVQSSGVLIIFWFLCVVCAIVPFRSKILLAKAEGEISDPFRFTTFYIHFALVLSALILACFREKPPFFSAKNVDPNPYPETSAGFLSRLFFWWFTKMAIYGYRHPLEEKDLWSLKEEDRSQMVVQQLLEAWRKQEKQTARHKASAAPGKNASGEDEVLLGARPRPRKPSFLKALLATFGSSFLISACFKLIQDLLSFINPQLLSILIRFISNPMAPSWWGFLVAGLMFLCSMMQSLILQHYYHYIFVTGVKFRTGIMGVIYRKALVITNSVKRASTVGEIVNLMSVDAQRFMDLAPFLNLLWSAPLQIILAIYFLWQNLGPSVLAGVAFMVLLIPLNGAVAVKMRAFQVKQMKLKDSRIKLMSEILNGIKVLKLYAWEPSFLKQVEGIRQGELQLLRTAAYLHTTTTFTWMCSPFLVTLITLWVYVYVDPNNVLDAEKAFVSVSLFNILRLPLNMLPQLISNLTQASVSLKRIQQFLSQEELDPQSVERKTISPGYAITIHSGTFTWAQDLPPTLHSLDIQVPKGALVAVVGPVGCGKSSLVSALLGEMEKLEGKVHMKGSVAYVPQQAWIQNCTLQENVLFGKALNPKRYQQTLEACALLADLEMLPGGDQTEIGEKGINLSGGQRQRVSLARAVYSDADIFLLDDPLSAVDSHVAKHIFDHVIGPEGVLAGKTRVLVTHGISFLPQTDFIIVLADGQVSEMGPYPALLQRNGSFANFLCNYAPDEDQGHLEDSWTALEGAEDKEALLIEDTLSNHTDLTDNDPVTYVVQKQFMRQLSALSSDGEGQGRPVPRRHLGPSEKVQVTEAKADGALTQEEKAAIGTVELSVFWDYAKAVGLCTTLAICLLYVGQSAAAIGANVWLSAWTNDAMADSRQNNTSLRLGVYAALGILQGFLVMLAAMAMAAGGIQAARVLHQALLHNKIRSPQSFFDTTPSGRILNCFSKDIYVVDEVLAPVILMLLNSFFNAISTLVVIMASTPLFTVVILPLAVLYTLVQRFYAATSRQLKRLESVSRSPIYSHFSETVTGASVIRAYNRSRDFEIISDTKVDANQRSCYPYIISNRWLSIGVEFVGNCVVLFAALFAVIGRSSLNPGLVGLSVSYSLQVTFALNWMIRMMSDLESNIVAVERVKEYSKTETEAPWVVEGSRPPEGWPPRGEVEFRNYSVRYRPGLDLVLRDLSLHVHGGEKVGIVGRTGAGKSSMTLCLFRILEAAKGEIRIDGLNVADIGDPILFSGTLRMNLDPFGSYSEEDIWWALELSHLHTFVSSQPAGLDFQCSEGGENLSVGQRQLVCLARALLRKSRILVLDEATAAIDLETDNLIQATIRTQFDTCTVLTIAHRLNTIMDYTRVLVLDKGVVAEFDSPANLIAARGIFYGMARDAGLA

> print(dat)
                                   compound                                    target  value.measured
1  CNc1nc2c(Cc3cccnc3)c(C)c(O[C@@H]3O[C@H](C(=O)O)[C@@H](O)[C@H](O)[C@H]3O)c(C)c2s1 [E3040 GLUCURONIDE]  Multidrug resistance associated protein (Homo sapiens, UniProt Q96QA9)          5.6 µM
2  CN(Cc1cnc2nc(N)nc(N)c2n1)c1ccc(C(=O)N[C@@H](CCC(=O)O)C(=O)O)cc1 [METHOTREXATE]  Multidrug resistance associated protein (Homo sapiens, UniProt Q96QA9)         1200 µM
3  O=C(O)[C@H]1O[C@@H](OCc2cc(=O)oc3cc(O)ccc23)[C@H](O)[C@@H](O)[C@@H]1O  Multidrug resistance associated protein (Homo sapiens, UniProt Q96QA9)          105 µM

Attention now turns to another entry.
Query block: Quick one: Ki of `N[C@@H](CCC(=O)N[C@H](CSc1ccc([N+](=O)[O-])cc1[N+](=O)[O-])C(=O)NCC(=O)O)C(=O)O` ?
Result block: 337 µM
